Recorded values, source paper PMC4585259.

Target: rNav1.2 sodium channels (Rattus norvegicus, UniProt P04775)
Construct: host or cells: HEK-293
Sequence (P04775 whole entry): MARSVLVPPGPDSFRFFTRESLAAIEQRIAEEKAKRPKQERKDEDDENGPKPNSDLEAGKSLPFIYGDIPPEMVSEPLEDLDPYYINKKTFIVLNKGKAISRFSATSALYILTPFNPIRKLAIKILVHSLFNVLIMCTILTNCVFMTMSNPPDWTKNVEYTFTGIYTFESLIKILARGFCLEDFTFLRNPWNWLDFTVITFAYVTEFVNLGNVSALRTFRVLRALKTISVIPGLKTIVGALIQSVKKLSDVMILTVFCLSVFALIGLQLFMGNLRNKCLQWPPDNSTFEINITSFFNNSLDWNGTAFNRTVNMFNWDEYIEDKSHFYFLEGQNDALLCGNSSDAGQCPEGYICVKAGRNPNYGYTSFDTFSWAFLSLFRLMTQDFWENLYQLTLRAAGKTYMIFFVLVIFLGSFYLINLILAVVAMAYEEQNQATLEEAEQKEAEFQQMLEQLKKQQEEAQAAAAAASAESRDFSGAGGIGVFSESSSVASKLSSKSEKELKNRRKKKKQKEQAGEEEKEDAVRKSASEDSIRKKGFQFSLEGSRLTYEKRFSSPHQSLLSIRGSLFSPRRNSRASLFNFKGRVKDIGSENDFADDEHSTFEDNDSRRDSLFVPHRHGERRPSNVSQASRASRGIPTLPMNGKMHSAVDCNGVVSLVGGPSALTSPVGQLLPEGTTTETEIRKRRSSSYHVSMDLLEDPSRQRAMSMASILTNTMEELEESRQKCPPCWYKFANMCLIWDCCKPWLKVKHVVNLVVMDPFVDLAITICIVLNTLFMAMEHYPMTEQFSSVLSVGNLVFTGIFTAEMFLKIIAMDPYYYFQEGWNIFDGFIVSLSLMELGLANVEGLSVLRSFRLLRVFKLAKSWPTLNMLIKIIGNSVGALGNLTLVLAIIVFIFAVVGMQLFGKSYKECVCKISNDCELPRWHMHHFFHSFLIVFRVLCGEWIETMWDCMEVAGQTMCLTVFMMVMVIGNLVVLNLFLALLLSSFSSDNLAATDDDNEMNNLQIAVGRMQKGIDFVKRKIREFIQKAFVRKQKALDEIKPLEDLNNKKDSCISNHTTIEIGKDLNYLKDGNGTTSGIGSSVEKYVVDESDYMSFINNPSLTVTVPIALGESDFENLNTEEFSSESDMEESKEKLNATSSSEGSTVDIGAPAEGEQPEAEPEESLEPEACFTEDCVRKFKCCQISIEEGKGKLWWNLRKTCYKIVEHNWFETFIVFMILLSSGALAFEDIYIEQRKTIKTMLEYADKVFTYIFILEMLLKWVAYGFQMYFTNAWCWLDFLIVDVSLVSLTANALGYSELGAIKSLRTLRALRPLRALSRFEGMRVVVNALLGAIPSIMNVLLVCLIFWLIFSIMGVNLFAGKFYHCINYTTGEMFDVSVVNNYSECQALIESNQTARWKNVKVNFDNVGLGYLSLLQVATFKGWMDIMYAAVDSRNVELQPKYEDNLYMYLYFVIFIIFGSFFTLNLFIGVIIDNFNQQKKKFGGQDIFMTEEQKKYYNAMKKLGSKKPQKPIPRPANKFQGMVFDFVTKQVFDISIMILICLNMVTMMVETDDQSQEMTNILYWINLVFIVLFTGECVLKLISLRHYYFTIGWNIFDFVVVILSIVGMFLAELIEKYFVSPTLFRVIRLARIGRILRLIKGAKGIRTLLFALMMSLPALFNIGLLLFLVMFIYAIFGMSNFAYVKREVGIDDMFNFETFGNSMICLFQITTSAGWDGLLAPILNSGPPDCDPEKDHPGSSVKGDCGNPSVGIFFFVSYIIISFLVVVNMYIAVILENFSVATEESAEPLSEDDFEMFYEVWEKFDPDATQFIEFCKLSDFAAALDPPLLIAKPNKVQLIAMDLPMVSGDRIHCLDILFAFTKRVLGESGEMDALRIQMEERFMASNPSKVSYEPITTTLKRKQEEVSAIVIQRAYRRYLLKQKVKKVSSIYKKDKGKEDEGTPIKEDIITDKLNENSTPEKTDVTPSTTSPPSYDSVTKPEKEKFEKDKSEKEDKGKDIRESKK
Test: QPatch automated patch clamp, inhibition of sodium currents evoked by 5 Hz trains at three extracellular pH values
Assay type: cell-based
Details: pH 7.3/8.6; cc 30 mM
Label rule, in plain words: Ratio Reversibility of 2 and up is Fulfilled, under 2 is Not fulfilled.

CC12CC3CC(C)(C1)CC(N)(C3)C2 [memantine]
Not fulfilled
CN(C)CCC=C1c2ccccc2CCc2ccccc21
Fulfilled
CCc1nn(CCCN2CCN(c3cccc(Cl)c3)CC2)c(=O)n1CCOc1ccccc1
Not fulfilled
Cc1nc2sccn2c(=O)c1CCN1CCC(=C(c2ccc(F)cc2)c2ccc(F)cc2)CC1
Fulfilled
CN(C)CCCN1c2ccccc2Sc2ccc(Cl)cc21
Not fulfilled

## Input Threshold query (Ratio Reversibility >= 2) on `Fc1ccc([C@@H]2CCNC[C@H]2COc2ccc3c(c2)OCO3)cc1`
## Output Fulfilled
